Origin of values: patent US20250034269A1

- tested-system: T1, monomeric cynomolgus LTBR ECD (S28-M227) Fc fusion avi biotinylated (P1AE4411) (cynomolgus, UniProt P0DOX5 223-449 = IgG part, biotinylated avi tag)
- T1 construct: also called cyno LTBR
- run-description: SPR, IgG captured;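 note: rate constants and KD obtained by fitting double-referenced sensorgrams to a 1:1 Langmuir binding model, with dissociation followed for 600 s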
quantity-measured: kon (M⁻¹ s⁻¹)
Numbers only, in M⁻¹ s⁻¹.

binder	quantity-measured	readout-number
P1AF0064 (antibody, human IgG1, kappa, L234A L235A, V domains shown, human IgG1 PG LALA constant regions; V domains from rat immunization; also called LTBR (0064)) VH: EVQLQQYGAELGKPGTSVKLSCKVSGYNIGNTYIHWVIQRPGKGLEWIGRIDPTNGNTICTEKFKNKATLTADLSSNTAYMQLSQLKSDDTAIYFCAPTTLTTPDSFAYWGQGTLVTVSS VL: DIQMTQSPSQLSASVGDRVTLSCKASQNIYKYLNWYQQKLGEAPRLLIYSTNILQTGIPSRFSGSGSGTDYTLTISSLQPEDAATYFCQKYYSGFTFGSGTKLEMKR	kon	1.19e+06

State recorded kon for all listed binders.
1. P1AE9452 (antibody, human IgG1, kappa, L234A L235A, V domains shown, human IgG1 PG LALA; from transgenic rabbit immunization; also called LTBR (9452)) VH: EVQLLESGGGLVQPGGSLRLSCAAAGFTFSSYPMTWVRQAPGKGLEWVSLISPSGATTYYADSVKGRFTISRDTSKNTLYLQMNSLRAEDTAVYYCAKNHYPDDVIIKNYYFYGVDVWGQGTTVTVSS VL: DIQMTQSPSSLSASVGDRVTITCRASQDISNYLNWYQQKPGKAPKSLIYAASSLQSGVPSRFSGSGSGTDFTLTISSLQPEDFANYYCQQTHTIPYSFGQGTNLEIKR
2. P1AF0080 (antibody, human IgG1, kappa, L234A L235A, V domains shown, human IgG1 PG LALA; from transgenic rabbit immunization; also called LTBR (0080)) VH: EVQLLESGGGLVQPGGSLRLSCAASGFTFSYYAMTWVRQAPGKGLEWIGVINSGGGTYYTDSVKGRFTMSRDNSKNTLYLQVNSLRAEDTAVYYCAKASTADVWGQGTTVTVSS VL: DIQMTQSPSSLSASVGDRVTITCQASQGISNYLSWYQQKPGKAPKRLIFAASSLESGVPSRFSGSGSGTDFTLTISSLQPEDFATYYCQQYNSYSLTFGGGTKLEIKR

Result:
160000
531000
